meta.source: paper PMC12217109

system: SK-OV-3; test: NCI-60 cytotoxicity screen; format: cell-based; settings: Homo sapiens, NCI-60, 48 h, ovarian
Friendly reminder: IC50 below 10000 nM is Condition met, at or above is Condition not met.

Observe how each entry below is paired with its result.
compound	category
C=C(CN1CCN(c2ccccc2C(F)(F)F)CC1)c1ccc(C(=O)Nc2ccccc2N)cc1 [Compound 3]	Condition not met
C=C(CN1CCN(c2ccc(C(F)(F)F)cc2)CC1)c1ccc(C(=O)Nc2ccccc2N)cc1 [Compound 5]	Condition not met

**Query** Input C=C(CN1CCN(c2cccc(C(F)(F)F)n2)CC1)c1ccc(C(=O)Nc2ccccc2N)cc1 [Compound 7] ; condition: IC50 strictly below 10000 nM. Does it hold?
**Result** Condition met

**Query** I'd appreciate it if you could check whether C=C(CN1CCN(c2ccccn2)CC1)c1ccc(C(=O)Nc2ccccc2N)cc1 [Compound 6] has IC50 smaller than 10000 nM.
**Result** Condition met

**Query** Does the reported IC50 of Nc1ccccc1NC(=O)c1ccc(CNC(=O)OCc2cccnc2)cc1 [Compound 1, Entinostat, reference compound] stay below 10000 nM?
**Result** Condition met
